biological target: KLK6 (Homo sapiens (Human)); assay: KLK6 enzymatic inhibition test (fluorogenic/FRET peptide substrates); settings: KLK6, FRET substrate PAR2
pIC50: −log10 of the molar value.

# MOLECULE, EXPERIMENTAL_TARGET, pIC50
records = [
    ("CC(C)(C)c1ccc(O)c(C(=O)Nc2ccc(CN)cc2)c1.Cl [Compound 1, hydrochloride, reference compound]", "KLK6 (Homo sapiens (Human))", 4.66),
]

---

target: plasmin (Homo sapiens (Human), UniProt P00747); test: Plasmin enzymatic inhibition test (Boc-QAR-AMC / PAR4 FRET substrate); conditions: plasmin, substrate Boc-QAR-AMC
Sequence (P00747 581-810 limits assumed): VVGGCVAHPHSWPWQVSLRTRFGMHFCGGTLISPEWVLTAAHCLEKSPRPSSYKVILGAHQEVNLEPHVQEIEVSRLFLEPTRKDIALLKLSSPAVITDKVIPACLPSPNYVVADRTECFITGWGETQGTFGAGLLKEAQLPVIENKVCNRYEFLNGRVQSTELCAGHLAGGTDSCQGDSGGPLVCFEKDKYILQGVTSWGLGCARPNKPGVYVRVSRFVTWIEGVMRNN
Sequence (P00747 97-580 partner limits assumed): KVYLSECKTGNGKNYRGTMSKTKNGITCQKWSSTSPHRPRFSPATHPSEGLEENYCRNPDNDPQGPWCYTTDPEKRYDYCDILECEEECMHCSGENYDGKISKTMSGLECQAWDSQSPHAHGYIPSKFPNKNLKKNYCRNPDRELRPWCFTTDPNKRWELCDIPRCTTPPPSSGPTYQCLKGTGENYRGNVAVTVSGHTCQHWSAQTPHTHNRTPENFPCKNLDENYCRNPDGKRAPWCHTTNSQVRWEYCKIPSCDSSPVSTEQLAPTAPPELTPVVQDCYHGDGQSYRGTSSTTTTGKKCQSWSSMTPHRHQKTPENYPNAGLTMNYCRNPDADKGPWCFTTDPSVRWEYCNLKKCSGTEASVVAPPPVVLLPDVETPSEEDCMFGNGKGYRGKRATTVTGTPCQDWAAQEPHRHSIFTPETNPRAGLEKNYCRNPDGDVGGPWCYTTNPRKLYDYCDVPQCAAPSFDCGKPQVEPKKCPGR

# MOLECULE, EXPERIMENTAL_TARGET, IC50
rows = [
    ("CC(C)(C)c1ccc(O)c(C(=O)Nc2ccc(CN)cc2)c1.Cl [Compound 1, hydrochloride, reference compound]", "plasmin (Homo sapiens (Human), UniProt P00747)", "17.1 µM"),
]

Data provenance is patent US11541023B2.
